src = the supplement of paper PMC10567573

B1: ACBD3 (parent)
chain: YVASHKIEKEEQEKKRKEEEERRR

# Variants of: B1
# protocolNotes: protein stability index of a GFP-peptide fusion (GPS, HEK-293T) (PSI 1-6); higher = more stable;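 also: lentivirally expressed fusions sorted by FACS into six bins by GFP to DsRed ratio, PSI derived from sequencing read proportions per bin multiplied by bin number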
# conditionsUsed: c terminus: a fixed tail appended
valueKind: protein stability index
Reply briefly: the number, and no unit.

Examples from the recorded data:
# seqText, resultValue
rows = [
    ("YVASHKIEKEEQEKKRTEEEERRR [K17T]", 2.35),
    ("YVASHVIEKEEQEKKRKEEEERRR [K6V]", 2.95),
]

QUERY: I'd like to know its protein stability index. The variant in question is YVASHKIEKEEQEKKRKEEHERRR [E20H]
RESULT: 2.39

QUERY: Next record, please: YVASHKIEKEEQEKKRKEEELRRR [E21L]
RESULT: 2.28
